# Tgt: rat GCPII (Rattus norvegicus, UniProt P70627)
# Construct: expressed in transfected cells
# Sequence (P70627 whole entry): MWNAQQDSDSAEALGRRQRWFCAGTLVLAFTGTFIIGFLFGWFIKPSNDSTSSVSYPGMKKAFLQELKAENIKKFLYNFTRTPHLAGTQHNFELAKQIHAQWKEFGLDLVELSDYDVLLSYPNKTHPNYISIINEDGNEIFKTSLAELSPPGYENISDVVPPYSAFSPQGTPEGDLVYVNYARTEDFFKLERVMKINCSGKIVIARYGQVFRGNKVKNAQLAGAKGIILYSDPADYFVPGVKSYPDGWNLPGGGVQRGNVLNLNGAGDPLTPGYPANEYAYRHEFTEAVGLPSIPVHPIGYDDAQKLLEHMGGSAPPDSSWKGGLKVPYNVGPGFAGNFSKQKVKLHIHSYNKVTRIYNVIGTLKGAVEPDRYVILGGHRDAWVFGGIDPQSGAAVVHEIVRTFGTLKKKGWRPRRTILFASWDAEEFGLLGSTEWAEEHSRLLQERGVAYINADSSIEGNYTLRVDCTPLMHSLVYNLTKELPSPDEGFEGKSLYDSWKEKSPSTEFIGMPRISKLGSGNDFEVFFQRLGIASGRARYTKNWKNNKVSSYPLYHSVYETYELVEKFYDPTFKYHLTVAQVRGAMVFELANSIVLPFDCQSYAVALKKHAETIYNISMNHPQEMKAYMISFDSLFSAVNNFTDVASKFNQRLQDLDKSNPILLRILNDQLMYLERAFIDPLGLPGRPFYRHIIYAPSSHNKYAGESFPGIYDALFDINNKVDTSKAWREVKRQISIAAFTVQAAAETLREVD
# Procedure Text: Inhibition of rat GCPII stably expressed in CHO cells
# Format: biochemical

Molecule | GCPII inhibitory activity (in words)
CC(C)(C)NC(=O)N[C@@H](CCC(=O)O)C(=O)O [PC113] | inactive
O=C(O)CC[C@H](NC(=O)NCC(=O)O)C(=O)O [PC108] | inactive
O=C(O)CC[C@H](NC(=O)C(=O)N[C@@H](CCC(=O)O)C(=O)O)C(=O)O [(S)-Glu-C(O)-C(O)-(S)-Glu] | inactive

----------
# Tgt: UniProt P70627
Experimental Endpoint: Ki

Identify the measured Ki of CC(C)(C)SC[C@H](NC(=O)N[C@@H](CCC(=O)O)C(=O)O)C(=O)O [PC120] for UniProt P70627. ~100 nM
